- experiment.description: pK2 was determined
- Type: ADME
- setup.conditions: read-out: pK2
assay.metric: pKa

smiles.code: [O-]/[N+](O)=N\O
number: 9.35

###

- experiment.description: pK1 was determined
- Assay type: ADME
- setup.conditions: read-out: pK1
assay.metric: pKa

smiles.code: [O-]/[N+](O)=N\O
result: 3
